tested on: Escherichia coli ATCC 25922; experiment: MIC, broth microdilution (CLSI), reference strain; details: CAMHB
Square brackets hold non-standard residues; d marks the D form. Peptide text beside a SMILES is read from it. * marks the point of attachment. Phe(3-CONH2) = NC(=O)c1cccc(C[C@H](N)C(=O)O)c1; Dab(3S-OH) = NC[C@H](O)[C@H](N)C(=O)O; Phe(2-F) = N[C@@H](Cc1ccccc1F)C(=O)O; ΔZArg = N=C(N)NCC/C=C(\N)C(=O)O; dOrn = NCCC[C@@H](N)C(=O)O; Dab = NCC[C@H](N)C(=O)O; NH(CH2)4NH2 = NCCCCN*
Value kind: Ec: MIC Escherichia coli ATCC 25922

{"Compound": "N=C(N)NCC/C=C(\\NC(=O)[C@H](CCCCN)NC(=O)[C@H](Cc1ccccc1F)NC(=O)[C@@H]1CCCN1C(=O)[C@@H](CCCN)NC(=O)CNC(=O)[C@@H](NC(=O)[C@@H](NC(=O)[C@@H](N)CCCCN)[C@@H](O)CN)[C@@H](O)CN)C(=O)O [22.33] (H-K[Dab(3S-OH)][Dab(3S-OH)]G[dOrn]P[Phe(2-F)]K[ΔZArg]-OH)", "Readout value": "++ (≤8 μg/mL)"}
{"Compound": "C[C@H](NC(=O)[C@@H](NC(=O)[C@@H](N)CCCCN)[C@@H](O)CN)C(=O)NCC(=O)N[C@H](CCCN)C(=O)N1CCC[C@H]1C(=O)N[C@@H](CC(N)=O)C(=O)N[C@@H](CCCCN)C(=O)N/C(=C\\CCNC(=N)N)C(=O)N[C@@H](CCCCN)C(=O)NCCCCN [24.22] (H-K[Dab(3S-OH)]AG[dOrn]PNK[ΔZArg]K-{NH(CH2)4NH2})", "Readout value": "++ (≤8 μg/mL)"}
{"Compound": "N=C(N)NCC/C=C(\\NC(=O)[C@H](CCCCN)NC(=O)[C@H](Cc1cccc(C(N)=O)c1)NC(=O)[C@@H]1CCCN1C(=O)[C@@H](CCCN)NC(=O)CNC(=O)[C@H](CCN)NC(=O)[C@@H](NC(=O)[C@@H](N)CCCCN)[C@@H](O)CN)C(=O)O [21.6] (H-K[Dab(3S-OH)][Dab]G[dOrn]P[Phe(3-CONH2)]K[ΔZArg]-OH)", "Readout value": "++ (≤8 μg/mL)"}
